Origin of the recorded values: patent US20220396632A1

experimental-target: T1, Human fibrinogen protein (ThermoFisher, RP-43142) (human, UniProt P02671 20-629; P02675 31-491; P02679 27-453, limits assumed, natural sulfotyrosines)
T1 construct: mature; Native dimer with 3 pairs of non-identical chains; also called gamma-fibrinogen; γ fibrinogen protein
T1 sequence (looked up) 1: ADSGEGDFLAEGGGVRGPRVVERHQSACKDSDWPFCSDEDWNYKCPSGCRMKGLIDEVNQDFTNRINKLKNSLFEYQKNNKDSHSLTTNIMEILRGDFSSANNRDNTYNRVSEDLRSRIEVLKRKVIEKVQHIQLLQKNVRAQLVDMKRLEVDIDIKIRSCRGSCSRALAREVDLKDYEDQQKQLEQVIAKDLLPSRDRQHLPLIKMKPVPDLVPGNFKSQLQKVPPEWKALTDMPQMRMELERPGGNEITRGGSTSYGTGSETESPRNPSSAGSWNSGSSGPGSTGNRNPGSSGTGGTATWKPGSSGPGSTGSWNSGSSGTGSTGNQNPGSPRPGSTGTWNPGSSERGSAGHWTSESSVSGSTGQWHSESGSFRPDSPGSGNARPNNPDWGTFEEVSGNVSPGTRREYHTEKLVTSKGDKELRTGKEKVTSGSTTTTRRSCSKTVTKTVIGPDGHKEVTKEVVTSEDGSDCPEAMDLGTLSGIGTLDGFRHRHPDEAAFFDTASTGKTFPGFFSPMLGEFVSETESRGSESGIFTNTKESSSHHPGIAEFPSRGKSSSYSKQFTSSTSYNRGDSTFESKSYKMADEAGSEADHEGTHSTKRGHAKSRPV
T1 sequence (looked up) 2: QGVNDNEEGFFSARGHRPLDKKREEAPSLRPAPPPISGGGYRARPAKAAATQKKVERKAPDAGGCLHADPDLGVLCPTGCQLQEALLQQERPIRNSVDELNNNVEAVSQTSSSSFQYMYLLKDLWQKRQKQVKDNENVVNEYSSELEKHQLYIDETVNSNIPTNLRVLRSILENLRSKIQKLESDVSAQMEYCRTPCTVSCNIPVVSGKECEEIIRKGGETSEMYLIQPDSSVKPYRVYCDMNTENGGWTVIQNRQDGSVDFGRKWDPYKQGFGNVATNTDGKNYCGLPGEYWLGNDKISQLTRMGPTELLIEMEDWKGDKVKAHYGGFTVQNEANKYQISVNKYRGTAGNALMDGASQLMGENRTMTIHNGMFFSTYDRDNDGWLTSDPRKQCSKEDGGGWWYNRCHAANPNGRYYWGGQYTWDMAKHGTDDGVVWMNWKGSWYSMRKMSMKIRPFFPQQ
T1 sequence (looked up) 3: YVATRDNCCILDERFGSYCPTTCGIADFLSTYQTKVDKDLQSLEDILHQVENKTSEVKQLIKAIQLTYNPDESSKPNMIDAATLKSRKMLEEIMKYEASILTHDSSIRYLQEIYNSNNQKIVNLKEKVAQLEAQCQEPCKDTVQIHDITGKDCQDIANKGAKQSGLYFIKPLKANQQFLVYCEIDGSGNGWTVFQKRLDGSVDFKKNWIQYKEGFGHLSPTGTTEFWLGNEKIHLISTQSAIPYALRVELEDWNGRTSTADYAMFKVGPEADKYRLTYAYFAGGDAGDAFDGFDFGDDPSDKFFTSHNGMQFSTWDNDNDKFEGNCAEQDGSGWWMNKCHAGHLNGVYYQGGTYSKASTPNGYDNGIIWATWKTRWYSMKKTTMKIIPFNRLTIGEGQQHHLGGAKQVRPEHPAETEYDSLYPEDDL
experimental-protocol: ELISA, 50 nM mAb
Decide using binding normalized to PSGL-1: a value greater than or equal to 0.2 is Criterion met, a smaller one is Criterion not met.

These solved cases illustrate the format of a correct answer.
INSERT INTO results (binder, assigned_category) VALUES
  ('05A11 (antibody, IgG4, V domains shown) VH: EVKLLESGGGVVQPGRSLRLSCAASGFSFSAYGMHWVRQAPGKGLEWVSSISGSGDGTYYADSVKGRFTISRDNSKNTLYLQMNSLRAEDAAVYYCAKSVKGRGYFFDYWGQGTLVTVSS VL: DIVLTQSPSSLSASVGDRVTITCRASQSISSYLNWYQQKPGKAPKLLIYAASSLQSGVPSRFSGSGSGTDFTLSISNLQPEDFATYYCQQAYKFPRSFGGGTKVEFK', 'Criterion met'),
  ('03D01 (antibody, IgG4, V domains shown) VH: EVQLVQSGGGLVQPGGSLRLSCAATGFTVSRNYMTWVREAPGKGLEWVAGIYKSGTTSYIESVKGRFTISRDNSKNTLYLEMSRLRAEDTAVYYCAKSTSTWGQGTQVTVSS VL: DVVMTQSPVSLPVTLGQPASISCRSSRNLLYSNGNTYLNWFHQRPGQSPRRLIYKVSNQDSGVPDRFSGSGSGTDFTLKISRVEAEDVGVYYCMQGTHWPTTFGQGTRLEIK', 'Criterion not met');

Request: # check: binding normalized to PSGL-1 of 05A07 (antibody, IgG4, V domains shown) VH: QVQLVQSGSEVKRPGASVKVSCKTSGYTFSNYGIAWVRQAPGQGLEWVGWVSAYNGKTGASQKLQGRVTMTTDRSTTTAYLELRSLQSDDTAVYYCARGVKGGLTGYARDYWGQGTLVIVSS VL: DIVLTQSPRSLPVTLGQPASISCRSSQSLVNRAGDTYLNWFQQRPGQSPRRLIYKVSNRDSGVPDRFSGSGSGTDFTLKISRVEAEDVGVYYCMQGTQWPYTFGQGTKLEIK is greater than or equal to 0.2
Result: Criterion met

Request: Record: 10F01 (antibody, IgG4, V domains shown) VH: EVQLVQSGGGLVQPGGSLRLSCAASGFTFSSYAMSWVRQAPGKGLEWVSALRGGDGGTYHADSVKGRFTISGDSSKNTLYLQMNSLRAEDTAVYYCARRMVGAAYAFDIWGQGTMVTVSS VL: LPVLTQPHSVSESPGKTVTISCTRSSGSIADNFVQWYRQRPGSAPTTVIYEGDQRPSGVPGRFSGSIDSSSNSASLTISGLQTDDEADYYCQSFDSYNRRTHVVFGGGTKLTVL
Result: Criterion not met

Request: Record: 20I15 (antibody, V domains shown, From mouse immunisation; only variable domains given; also called 20115) VH: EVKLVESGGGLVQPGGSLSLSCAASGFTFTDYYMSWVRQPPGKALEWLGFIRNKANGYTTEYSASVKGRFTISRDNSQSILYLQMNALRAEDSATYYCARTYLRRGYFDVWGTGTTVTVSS VL: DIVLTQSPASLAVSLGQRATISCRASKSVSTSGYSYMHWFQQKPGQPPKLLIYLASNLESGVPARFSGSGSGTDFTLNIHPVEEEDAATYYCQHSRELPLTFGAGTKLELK
Result: Criterion not met
